- ASSAY NAME: protein stability index of a GFP-peptide fusion (yeast GPS) (PSI 1-4); higher = more stable; sorted into four equal gates, so the index is relative within each strain
- CONDITION DESCRIPTION: doa10∆
Threshold check on protein stability index: at or above 2 gives Condition met, strictly below gives Condition not met.

# BIOPOLYMER SEQUENCE, CLASS NAME
rows = [
    ("TPLRDEVTDKNYYYLFD [PRP8]", "Condition met"),
    ("WKPNPSYDVENVNSRNQ [SRB5]", "Condition met"),
    ("DVLHPNRANVSKDELRE [RPS24A]", "Condition met"),
    ("MNLVLNECIEERVPKTQ [SMB1]", "Condition met"),
    ("YLMTYPQQPMVKTKTIE [RET1]", "Condition not met"),
    ("PLSQDELISLRKILESS [YIL149C/MLP2]", "Condition met"),
    ("KLSESLDTRKELWRKEQ [SMC3]", "Condition not met"),
    ("RRIKEAEENLKKRIRLP [YIL149C/MLP2]", "Condition met"),
    ("KFNAAPEENATEGPSDK [SNF12]", "Condition met"),
    ("ERESSGAKDAEKSGISK [RPC17]", "Condition met"),
    ("VTALEVLSLGRPNLPTH [RGR1]", "Condition met"),
    ("EEYRKQLDKKNELQKFQ [SMC1]", "Condition met"),
    ("KFNELVKLMKNITDYET [BRR2]", "Condition not met"),
    ("RIQNRVKLGLNSKMPTR [PRP8]", "Condition met"),
    ("IKVTVQLKIQNRQAAAS [RPL12A]", "Condition not met"),
    ("QLASQLVDLKKELAELK [RPL35A]", "Condition met"),
    ("NKLRQQAIAKNNPQVVN [SNF5]", "Condition not met"),
    ("RKVENIRTILVNIHHLL [MED7]", "Condition not met"),
    ("ESKSDDNSATSYYELET [RRI1]", "Condition met"),
    ("NAARKAEASGEAAEEAE [RPS9B]", "Condition met"),
    ("KLEAEEIPSEDQNEFLL [FAS2]", "Condition met"),
    ("DIVQYHLELYTSQYGTP [PRE3]", "Condition met"),
    ("GVILMFAAILVLLVLPF [COB]", "Condition met"),
    ("KKAVKELYEVDVLKVNT [RPL25]", "Condition met"),
    ("LGILKKKRFDEFMAGFN [SMC4]", "Condition met"),
    ("SKFSKQQAKGAFQKVAA [RPL24A]", "Condition met"),
    ("LGPLFKKIVDDTIMENP [IRR1]", "Condition met"),
    ("AVVFKPFKGEVVDGTVV [RPB7]", "Condition met"),
    ("DTRITHLLRQTNAFLDS [SNF2]", "Condition not met"),
    ("QAIKEASYVNIPVIALT [RPS0A]", "Condition met"),
]

* * *

- ASSAY NAME: protein stability index of a GFP-peptide fusion (yeast GPS) (PSI 1-4); higher = more stable; sorted into four equal gates, so the index is relative within each strain
- CONDITION DESCRIPTION: ubr1∆
Each entry below carries its recorded protein stability index.

# BIOPOLYMER SEQUENCE, protein stability index
data = [
    ("SFDSIDHSWFLLIGCKL [CSI1]", 2.58),
    ("EIYTVEDRPPEYWAQRK [ISW2]", 3.31),
    ("HQQQLQQPHYIQRTRER [DSN1]", 2.84),
    ("PKASSAKFFLNVSDEQL [ITC1]", 3.23),
    ("VRSLLEVVQTGAKNIEI [PRE6]", 3.21),
    ("GGAKSRGVRPYKHIDAS [RPS19A]", 2.98),
    ("AVKKLYAIIINYTKDNE [YCS4]", 1.91),
    ("KTVCAIALILAIQMVDP [SMC3]", 1.87),
    ("LKGIQEFGADWYKVAKN [SWI3]", 3.34),
    ("GSLARAGKVKSQTPKVE [RPS30A]", 2.57),
    ("PNEFEIQLSTVNRQSPL [RGR1]", 2.45),
    ("SENVFEGLTYKYPARRI [SSN3]", 2.86),
    ("AKLSERSNGSVASLSKR [YJL039C/NUP192]", 1.89),
    ("DIPPPAIMKPYYLWTGK [RPO31]", 2.79),
    ("QGRDTSKLPDPERWLPL [SRP72]", 2.93),
    ("KQNNKDFRTRYIDIRTN [MTW1]", 2.62),
    ("VSANTPKSLNSNININV [SWI1]", 2.87),
    ("NRIIKADDHASVQINVA [RPS21A]", 3.11),
    ("IQHVGMINGRKLIKFET [FAS1]", 2.81),
    ("VAARAEILRIHSRKMNL [RPT6]", 2.64),
    ("LYKTFFKRNAVFVGTIF [QCR9]", 1.36),
    ("GSPKSATSKTSEMLAKY [CDC53]", 3),
    ("IKEENDMENMADEQKRS [ARP7]", 3.19),
    ("VYGEGTSRVTGILLLDS [YJL039C/NUP192]", 3.44),
    ("ITIQLTRDVEPENLQVT [BRR2]", 2.85),
    ("KSCEPVSISTSVKPHVV [SIR4]", 2.42),
    ("ILSKKWGFTNLDRPEYL [RPL10]", 2.89),
    ("RGDSTETSSFGSMFSGD [RRI1]", 3.27),
    ("LGQYVQAHTLYNSVRPF [PRE10]", 2.65),
    ("KKYSSKNKYGEINSEDY [SRP68]", 3.14),
]
